measurement target: UniProt:Q92633
Sequence (Q92633 whole entry): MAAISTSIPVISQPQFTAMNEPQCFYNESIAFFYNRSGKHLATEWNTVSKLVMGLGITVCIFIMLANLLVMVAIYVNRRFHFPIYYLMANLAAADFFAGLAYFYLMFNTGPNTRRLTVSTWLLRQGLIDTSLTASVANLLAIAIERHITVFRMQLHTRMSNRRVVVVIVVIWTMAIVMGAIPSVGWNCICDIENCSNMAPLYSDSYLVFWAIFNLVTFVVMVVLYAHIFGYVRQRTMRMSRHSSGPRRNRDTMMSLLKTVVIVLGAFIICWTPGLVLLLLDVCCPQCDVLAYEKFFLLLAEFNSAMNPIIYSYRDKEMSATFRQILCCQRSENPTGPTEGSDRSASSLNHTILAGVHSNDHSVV
test: LPA1 functional antagonist assay (LPA-induced calcium flux)
test settings: CHO cells overexpressing human LPA1; calcium flux induced by 10 nM LPA; read-out: hLPA1 IC50
Below: a set of entries, each annotated with reported log10(IC50).
Give log10 of IC50, with IC50 taken in nM.

A selection of reference data follows.
CCCCN(C)C(=O)OCc1c(-c2ccc(O[C@H]3CCC[C@H](C(=O)O)C3)c(C)c2)cnn1C [Example 60] ... 1.04
CN(C(=O)OCc1c(-c2ccc(O[C@@H]3CCC[C@@H](C(=O)O)C3)cc2)cnn1C)C1CCC1 ... 2.62
Cc1nc(-c2cnn(C)c2COC(=O)N(C)CCCCF)ncc1O[C@H]1CCC[C@H](C(=O)O)C1 ... 1.89
Cc1cc(-c2cnn(C)c2COC(=O)N(C)C(C)C2CCC2)ccc1O[C@H]1CCC[C@H](C(=O)O)C1 (stereo partly drawn) ... 1.43
CCCCN(C)C(=O)OCc1c(-c2ccc(O[C@H]3CCC[C@H](C(=O)O)C3)c(C)c2)cnn1C [Example 30] ... 0.70
CCCC1(N(C)C(=O)OCc2c(-c3ccc(O[C@H]4CCC[C@H](C(=O)O)C4)c(C)n3)cnn2C)CC1 ... 1.74

Now look at this one.
Return log10(IC50) measured with UniProt:Q92633 given this compound: `C[C@H](C1CC1)N(C)C(=O)OCc1c(-c2ccc(O[C@H]3CCC[C@H](C(=O)O)C3)cn2)cnn1C`
1.83
